# assay.conditions: in acetone, 298.15 K
measured.endpoint: solubility (mole fraction)
// return just the number, without any unit appended

Task: Read the entry `CC(=O)OCC(=O)[C@@]12N=C(C)O[C@@H]1C[C@H]1[C@@H]3CCC4=CC(=O)C=C[C@]4(C)[C@H]3[C@@H](O)C[C@@]12C` and write its reported solubility (mole fraction).
Result: 0.00674

====

# assay.conditions: in ethyl acetate, 293.15 K
measured.endpoint: solubility (mole fraction)
Please respond with just the number, no unit label.

Task: State its solubility (mole fraction): `CC(=O)OCC(=O)[C@@]12N=C(C)O[C@@H]1C[C@H]1[C@@H]3CCC4=CC(=O)C=C[C@]4(C)[C@H]3[C@@H](O)C[C@@]12C`
Result: 0.00331

====

# assay.conditions: in ethanol, 323.15 K
measured.endpoint: solubility (mole fraction)
No unit in the answer, only the number.

Task: // fetch solubility (mole fraction) given entry `CC(=O)OCC(=O)[C@@]12N=C(C)O[C@@H]1C[C@H]1[C@@H]3CCC4=CC(=O)C=C[C@]4(C)[C@H]3[C@@H](O)C[C@@]12C`
Result: 0.00477

====

# assay.conditions: in acetone, 313.15 K
measured.endpoint: solubility (mole fraction)
// no unit, no text: just the number

Task: Given `CC(=O)OCC(=O)[C@@]12N=C(C)O[C@@H]1C[C@H]1[C@@H]3CCC4=CC(=O)C=C[C@]4(C)[C@H]3[C@@H](O)C[C@@]12C` , respond with its solubility (mole fraction).
Result: 0.00861

====

# assay.conditions: in ethanol, 318.15 K
measured.endpoint: solubility (mole fraction)
I'd appreciate a reply containing only the number, no unit.

Task: Please supply the value of reported solubility (mole fraction) for the item `CC(=O)OCC(=O)[C@@]12N=C(C)O[C@@H]1C[C@H]1[C@@H]3CCC4=CC(=O)C=C[C@]4(C)[C@H]3[C@@H](O)C[C@@]12C`
Result: 0.00397
